Every entry's value here was drawn from patent US20250163162A1.

Molecular target: T1, IL10Rα/IL2Rγ receptor (human) (UniProt Q13651)
T1 sequence (looked up) 1: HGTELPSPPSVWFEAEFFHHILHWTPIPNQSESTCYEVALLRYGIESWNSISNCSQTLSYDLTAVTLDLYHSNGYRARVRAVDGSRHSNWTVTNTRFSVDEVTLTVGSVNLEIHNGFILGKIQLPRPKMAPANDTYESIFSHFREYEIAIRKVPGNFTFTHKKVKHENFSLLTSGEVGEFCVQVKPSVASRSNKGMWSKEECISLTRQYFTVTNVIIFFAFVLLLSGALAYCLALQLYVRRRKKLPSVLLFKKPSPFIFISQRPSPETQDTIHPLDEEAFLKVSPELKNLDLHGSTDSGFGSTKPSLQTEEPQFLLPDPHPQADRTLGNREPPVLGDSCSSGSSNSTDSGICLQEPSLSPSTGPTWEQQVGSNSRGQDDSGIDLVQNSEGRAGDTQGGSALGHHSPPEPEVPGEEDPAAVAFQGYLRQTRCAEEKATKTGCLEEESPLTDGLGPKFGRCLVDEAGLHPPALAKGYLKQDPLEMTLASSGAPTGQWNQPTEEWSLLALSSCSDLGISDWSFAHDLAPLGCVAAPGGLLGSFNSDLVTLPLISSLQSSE
T1 sequence (looked up) 2: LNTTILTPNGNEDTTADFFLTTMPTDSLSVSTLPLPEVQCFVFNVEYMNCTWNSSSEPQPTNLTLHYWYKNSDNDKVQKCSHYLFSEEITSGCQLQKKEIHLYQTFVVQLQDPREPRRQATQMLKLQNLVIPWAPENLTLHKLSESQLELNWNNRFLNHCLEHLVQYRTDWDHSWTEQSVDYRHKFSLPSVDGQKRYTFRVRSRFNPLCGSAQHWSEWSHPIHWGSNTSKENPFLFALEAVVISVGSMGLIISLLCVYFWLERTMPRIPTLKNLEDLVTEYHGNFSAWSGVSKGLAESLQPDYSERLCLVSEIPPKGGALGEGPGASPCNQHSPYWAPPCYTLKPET
Experiment: cell-based or functional assay
recorded_endpoint: IL-9 secretion, CD8 T cells, at 0.1 µM (pg/mL)
Please state the figure in pg/mL; there is no need to write the unit.

hIL10Ra_VHH14 - hIL2Rg_VHH19, linker GGGS, tag Fc (bispecific antibody, not shown: a dimerising Fc or GST) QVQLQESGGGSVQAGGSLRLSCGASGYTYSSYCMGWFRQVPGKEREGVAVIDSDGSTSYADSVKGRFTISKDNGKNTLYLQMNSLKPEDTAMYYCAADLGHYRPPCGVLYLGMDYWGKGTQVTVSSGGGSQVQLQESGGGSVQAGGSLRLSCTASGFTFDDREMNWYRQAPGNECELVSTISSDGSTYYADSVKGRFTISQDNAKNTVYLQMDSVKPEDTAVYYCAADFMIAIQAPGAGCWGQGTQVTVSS
1420

Qu. State, in one line, measured IL-9 secretion, CD8 T cells, at 0.1 µM of hIL10Ra_VHH14 - hIL2Rg_VHH19, linker GS, tag his (bispecific antibody, not shown: small tags and cut ends) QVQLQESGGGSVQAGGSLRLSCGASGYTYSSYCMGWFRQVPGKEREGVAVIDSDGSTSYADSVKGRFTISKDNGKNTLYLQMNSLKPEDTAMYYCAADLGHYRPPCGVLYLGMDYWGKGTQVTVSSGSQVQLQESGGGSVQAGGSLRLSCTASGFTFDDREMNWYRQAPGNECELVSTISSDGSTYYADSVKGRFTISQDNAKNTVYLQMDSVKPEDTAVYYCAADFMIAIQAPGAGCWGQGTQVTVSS
Ans. 1230
